- measurement_target: human mGlu2 receptor (Homo sapiens, UniProt Q14416)
- Construct: expressed in transfected cells; host or cells: CHO cells
- Sequence (Q14416 19-872): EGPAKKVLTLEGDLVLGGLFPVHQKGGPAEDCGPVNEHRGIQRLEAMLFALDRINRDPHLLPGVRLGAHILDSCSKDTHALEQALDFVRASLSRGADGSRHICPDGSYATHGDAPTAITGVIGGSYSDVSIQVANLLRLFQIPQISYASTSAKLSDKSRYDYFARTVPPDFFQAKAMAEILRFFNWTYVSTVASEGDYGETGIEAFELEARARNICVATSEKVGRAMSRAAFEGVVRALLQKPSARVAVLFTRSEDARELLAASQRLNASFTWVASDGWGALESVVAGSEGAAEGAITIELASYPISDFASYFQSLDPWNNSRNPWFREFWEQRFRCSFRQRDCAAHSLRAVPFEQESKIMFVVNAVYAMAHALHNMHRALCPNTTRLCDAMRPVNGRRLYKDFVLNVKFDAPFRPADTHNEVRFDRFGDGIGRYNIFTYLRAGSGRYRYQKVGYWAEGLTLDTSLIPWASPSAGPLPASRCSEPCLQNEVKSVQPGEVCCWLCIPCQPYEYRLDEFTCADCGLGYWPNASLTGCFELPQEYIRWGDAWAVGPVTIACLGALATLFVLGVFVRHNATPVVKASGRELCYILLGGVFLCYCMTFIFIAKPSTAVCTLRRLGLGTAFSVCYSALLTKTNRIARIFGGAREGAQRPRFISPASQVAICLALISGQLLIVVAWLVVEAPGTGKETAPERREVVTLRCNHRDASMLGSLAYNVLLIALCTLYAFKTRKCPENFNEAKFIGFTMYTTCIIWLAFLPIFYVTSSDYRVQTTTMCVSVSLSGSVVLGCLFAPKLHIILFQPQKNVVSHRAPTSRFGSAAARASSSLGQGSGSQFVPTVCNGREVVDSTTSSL
- test_details: [35S]GTPγS binding assay, mGluR2 PAM
- Format: biochemical
- protocol_conditions: in presence of glutamate at EC20; EC50 expressed in M; read-out: GTPγS - hmGluR2 PAM pEC50 (converted)
quantity: EC50 (µM)
One number for each entry, in µM.

Hi! Can you tell me EC50 for each of these compounds?
1. CCCc1nnc2c(C(F)(F)F)c(C(C)Oc3ccc(F)cc3F)ccn12 (single isomer, unassigned) [Compound 31]
2. CC(Oc1ccc(F)cc1F)c1ccn2c(CC3CC3)nnc2c1C(F)(F)F (stereo not shown)
3. CCCc1nnc2c(C(F)(F)F)c(C(C)Oc3ccc(F)cc3F)ccn12 (single isomer, unassigned) [Compound 32]

Result:
1. 0.0891
2. 0.0912
3. 1.95
